System: Amaranthus caudatus cotyledon/hypocotyl explants
test: Amaranthus bioassay (betacyanin content)
Assay type: cell-based, Amaranthus caudatus var. atropurpurea
condition-description: at the concentration with highest activity, relative to 10^−5 M kinetin
property: Activity (%) [10^−5 mol · l^−1 K = 100%]
One number for each entry, in %.

Hi! Can you tell me Activity (%) [10^−5 mol · l^−1 K = 100%] for each of these molecules?
1. Nc1nc(Nc2cccc(F)c2)c2nc[nH]c2n1
2. Fc1ccc(Nc2nc(F)nc3[nH]cnc23)cc1
3. Oc1cccc(Nc2nc(F)nc3[nH]cnc23)c1
4. Fc1cccc(Nc2nc(S)nc3[nH]cnc23)c1

1: 113.2; 2: 109; 3: 100.3; 4: 133.5

###

tgt: AHK3 (Arabidopsis thaliana)
Sequence (Q9C5U1 1-1036): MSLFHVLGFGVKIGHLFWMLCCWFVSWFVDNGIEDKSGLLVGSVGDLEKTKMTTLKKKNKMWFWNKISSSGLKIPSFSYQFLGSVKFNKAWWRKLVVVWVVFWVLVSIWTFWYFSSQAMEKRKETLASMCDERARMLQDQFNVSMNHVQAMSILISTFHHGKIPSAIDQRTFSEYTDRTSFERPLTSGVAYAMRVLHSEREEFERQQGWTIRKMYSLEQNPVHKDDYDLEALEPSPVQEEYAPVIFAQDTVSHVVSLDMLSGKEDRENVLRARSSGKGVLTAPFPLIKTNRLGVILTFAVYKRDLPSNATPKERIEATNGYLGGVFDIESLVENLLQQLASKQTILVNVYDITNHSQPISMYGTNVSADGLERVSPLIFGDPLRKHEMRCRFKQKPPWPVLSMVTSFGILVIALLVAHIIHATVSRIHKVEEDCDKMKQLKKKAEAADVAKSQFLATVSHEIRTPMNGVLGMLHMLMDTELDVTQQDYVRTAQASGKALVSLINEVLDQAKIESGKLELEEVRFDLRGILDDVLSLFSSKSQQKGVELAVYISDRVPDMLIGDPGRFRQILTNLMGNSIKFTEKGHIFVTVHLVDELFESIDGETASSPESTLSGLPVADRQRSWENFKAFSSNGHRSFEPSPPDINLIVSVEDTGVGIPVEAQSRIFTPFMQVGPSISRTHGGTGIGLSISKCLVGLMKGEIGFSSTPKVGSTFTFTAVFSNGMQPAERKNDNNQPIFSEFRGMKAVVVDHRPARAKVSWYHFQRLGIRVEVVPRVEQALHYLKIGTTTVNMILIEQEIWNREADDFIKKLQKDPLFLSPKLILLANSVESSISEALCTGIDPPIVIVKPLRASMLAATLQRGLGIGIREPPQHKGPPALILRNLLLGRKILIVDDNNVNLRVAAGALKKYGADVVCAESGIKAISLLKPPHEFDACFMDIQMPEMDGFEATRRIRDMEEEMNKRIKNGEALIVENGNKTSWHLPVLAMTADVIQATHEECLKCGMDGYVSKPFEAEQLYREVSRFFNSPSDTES
test: Activation of cytokinin receptors (E. coli KMI001 beta-galactosidase reporter)
condition-description: 28 h incubation; n.a. means no activation
Experimental: Escherichia coli strains KMI001 harbouring the plasmid […]4 or […]3 were grown overnight at 25° C. in M9 media enriched with 0.1% casamino acids to OD600 1. The preculture was diluted 1:600 in 1 ml M9 medium containing 0.1% casamino acids and 1 μl stock solution of either the tested compound (10^-7 M-5×10^-5 M) or solvent control (DMSO, ethanol, methanol) were added. The cultures were further grown at 25° C. in microtiter plate, 200 μl per well. […]
pEC50: −log10 of the molar value.
property: pEC50

Reference set, count: 3
smiles-input	result
Nc1nc(Nc2ccccc2O)c2[nH]cnc2n1	< 4.30
Nc1nc(Nc2ccc(O)cc2)c2nc[nH]c2n1	< 4.30
Nc1nc(Nc2cccc(F)c2)c2nc[nH]c2n1	< 4.30

Return pEC50 (reported value) for this compound: COc1cccc(Nc2nc(F)nc3nc[nH]c23)c1
4.64
